Numbers sourced from patent US9266835B2.

Recorded concentration at 4 h by entry
Assay: Mouse Fast PK/BBB (plasma and brain concentration)
Format: in vivo
Conditions: male, C57bl/6j, plasma, oral, 4 hr, N=3 (dose given as 30 mg/kg and 20 mg/kg), read-out: PLASMA Mean Conc. ± Std. Dev
Answer with a number only, understood to be in ng/mL.

Before answering, review these 2 worked examples.
# Compound, concentration at 4 h [ng/mL]
records = [
    ("O=c1cc(Nc2ccc(C(F)(F)F)cc2)c2cc(C(c3ccc(Cl)cc3)c3ccc(Cl)cc3)ccc2[nH]1", 1610),
    ("O=c1cc(NC2CCN(S(=O)(=O)C(F)(F)F)CC2)c2cc(C(c3ccc(Cl)cc3)c3ccc(Cl)cc3)ccc2[nH]1", 1180),
]

Next compound, concentration at 4 h to be filled in.
Input: Which concentration at 4 h reading was recorded for the compound O=c1cc(NC2CCN(S(=O)(=O)C(F)(F)F)CC2)c2cc(C(c3ccc(Cl)cc3)c3nccs3)ccc2[nH]1 (stereo not drawn) ?
Output: 291
